Assay: In vivo autophagy assay in GFP-LC3 mice
Conditions: female, GFP-LC3, mouse, liver; 4 h after last dose; 100 or 200 mg/kg oral, 3 doses over two days; read-out: liver levels
assay-readout: concentration at 4 h (µM)
Please give a number only; it is taken to be in µM.

**Q:** Reported concentration at 4 h for O=C(O)CCSC(SCCc1ccccc1)c1ccc(/C=C/c2ccnc3cc(Cl)ccc23)cc1 (stereo not shown) : what is it?
**A:** 104

====

Biological target: ATG4B (Homo sapiens, UniProt Q9Y4P1)
Sequence (Q9Y4P1 1-393): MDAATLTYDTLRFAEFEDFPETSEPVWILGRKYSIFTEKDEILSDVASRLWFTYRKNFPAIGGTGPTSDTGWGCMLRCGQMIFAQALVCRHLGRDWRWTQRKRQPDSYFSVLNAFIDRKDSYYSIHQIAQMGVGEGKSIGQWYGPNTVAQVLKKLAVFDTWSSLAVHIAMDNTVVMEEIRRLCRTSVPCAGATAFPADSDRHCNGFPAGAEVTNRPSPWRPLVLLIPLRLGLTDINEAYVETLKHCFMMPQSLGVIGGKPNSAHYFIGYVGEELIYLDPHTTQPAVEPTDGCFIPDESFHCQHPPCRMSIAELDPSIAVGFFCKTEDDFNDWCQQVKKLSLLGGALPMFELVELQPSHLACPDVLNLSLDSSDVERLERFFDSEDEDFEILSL
Test: Mass spectrometry ATG4B enzymatic assay with GFP-LC3-YFP substrate
assay-readout: IC50 (µM)
Please give a number only; it is taken to be in µM.

**Q:** Reported IC50 for `CCCCN(CCC(=O)O)c1ccc(/C=C/c2ccnc3ccccc23)cc1` : what is it?
**A:** 116

Source: paper PMC6076261
